target: CRF1R; assay: cell-based or functional assay
Ends that are not written are not given here.
measuredProperty: CRF1R EC50 (nM)
Enter your answer as a number in nM; do not include the unit.

In: May I ask what CRF1R EC50 has been recorded for ZGPPISIDVPFQLLRKVIEIEKQEKEKQQAANNARLLARI (C-terminal amide) [SEQ ID NO 383] ?
Out: 1000

In: Query (binder): IVLSLDVPIGLLQILLEQEKARAAREQATTNARILARV-NH2 [SEQ ID NO 325] ; field requested: CRF1R EC50
Out: 100

In: # CRF1R EC50 lookup, item ZGPPISIDLPFQLLRKMIEIEKQEKEKQQAANNALLLDTI (C-terminal amide) [SEQ ID NO 251]
Out: 926
